IC90, pNFκB, NCI/ADR-RES cells, trun-IL-36g: recorded values
- SUBJECT OF TEST: T1, human IL-36R on cells (human, UniProt Q9HB29 20-575)
- T1 sequence (looked up): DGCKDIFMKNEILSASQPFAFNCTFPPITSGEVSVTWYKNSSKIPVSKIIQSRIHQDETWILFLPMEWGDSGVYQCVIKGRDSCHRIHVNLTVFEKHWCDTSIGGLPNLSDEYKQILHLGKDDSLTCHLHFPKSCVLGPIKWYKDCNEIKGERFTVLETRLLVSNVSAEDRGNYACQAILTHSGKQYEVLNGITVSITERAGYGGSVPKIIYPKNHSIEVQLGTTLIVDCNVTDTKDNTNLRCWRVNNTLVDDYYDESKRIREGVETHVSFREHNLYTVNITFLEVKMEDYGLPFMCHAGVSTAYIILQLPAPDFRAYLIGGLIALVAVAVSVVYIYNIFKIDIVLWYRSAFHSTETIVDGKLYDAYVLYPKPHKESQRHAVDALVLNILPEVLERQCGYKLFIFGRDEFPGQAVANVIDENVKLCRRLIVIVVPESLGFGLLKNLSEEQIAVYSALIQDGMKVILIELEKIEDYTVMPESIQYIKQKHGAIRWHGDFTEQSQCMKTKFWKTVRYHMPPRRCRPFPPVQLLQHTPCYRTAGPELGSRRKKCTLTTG
- METHOD SUMMARY: cell-based or functional assay
Your answer should be a plain number; it is taken to be in nM.

Item: antibody 89A12 (antibody, V domains shown, Mouse monoclonal from hybridoma; also called 89A12B8) VH: EVQLQQSGAELVRPGASVRLSCTASGFNIKDDYIHWVRQRPKQGLEWLGRIDPANGNTKYDPRFQDKATITADTSSNTAYLHLSSLTSEDTAVYYCAKSFPDNYYSYDDAFAYWGQGTLVTVSA VL: DIQMTQSPASQSASLGESVTFSCLASQTIGTWLGWYQQKPGKSPQLLIYRATSLADGVPSRFSGSGSGTNFSFKISSLQAEDLASYYCQQLYSGPYTFGGGTKLEIR | IC90, pNFκB, NCI/ADR-RES cells, trun-IL-36g: 145

Item: antibody 33D10 (antibody, V domains shown, Mouse monoclonal from hybridoma; also called 33D10B12; Mouse 33D10) VH: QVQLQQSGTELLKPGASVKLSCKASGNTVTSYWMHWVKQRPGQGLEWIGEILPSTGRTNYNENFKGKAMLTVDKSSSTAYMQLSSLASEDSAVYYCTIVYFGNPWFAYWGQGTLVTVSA VL: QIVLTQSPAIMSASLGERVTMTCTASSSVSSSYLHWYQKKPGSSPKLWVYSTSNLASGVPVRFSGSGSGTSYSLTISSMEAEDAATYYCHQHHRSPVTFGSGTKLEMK | IC90, pNFκB, NCI/ADR-RES cells, trun-IL-36g: 1.1
